Below, each entry is listed alongside its reported folding stability dG unfold.
assay: folding stability dG unfold from chymotrypsin proteolysis; higher = more stable
# unit: kcal/mol | format: bare number

Examples with answers:
>>> print(df.to_string())
                            sequence_record                 readout_name     units  meas_value
0  SAGGSAGGSDFKPVLVIELDDKTVLVFELEDGTVLVLAENEIALIPASIPAEHFPEDAKLDLDSAGGSAGGS [r12_594_TrMRF]  folding stability dG unfold  kcal/mol        1.76
1  MVLDAGISRKDFINNKPIKVETALKKLAEILGGPNFKPKVKPSKKDYLVAVIELPDGRKLLLKDDKDIKISS [r1_168_TrMRF]  folding stability dG unfold  kcal/mol      -0.108

// query folding stability dG unfold value for entry SAGGSAGGSAGGGSTTTTTETYPENGLIFTTTTTVFDDGSLSVTTTTSPLPLPPSPFIATSAGGSAGGSAGG [r7_103_JUSTAS] 0.394

Now consider SAGGSAGGKGKLVDEPPIRDPNNGKDVWAFIMDPDGRMEVYDPNEIEEIPLKPGQIMIFTPEDLSAGGSAGG [r6_627_TrROS] . 0.168

Now consider SAGGSSNVGEVTIEIREPVNPERFVDPEYREKAIEEMKEKAEAKAEEIKKENPNVKVTVNISLLEPGSAGGS [r8_183_JUSTAS] . 0.659

Now consider SAYYIIIKIENPNDGKPFIIMIPGNNIHIFDPDNGKPVEIEVDGDKIEIKFNNRPVTVKPLEVIPPEAISAG [r14_208_TrROS] . 2.42

Now consider SAGGSAGGSAGGFRIKITEIWPISMEMRKPDPENGKWKEQPMTIMIIRIKIENLPPGAKISAGGSAGGSAGG [r17_530_TrROS] . 3.9

----------
experiment: folding stability dG unfold (combined trypsin and chymotrypsin); higher = more stable
Below, each entry is listed alongside its reported folding stability dG unfold.
# unit: kcal/mol | format: bare number

In [3]: df
Out[3]:
                            sequence_record                 readout_name  meas_value
0  SAGDKGRYHFPFTVTMPPGKPPSQIEDALGKYGWDDVDINREPPPNGETKYTINVHMPKEDLPKLLEAFSAG [r5_376_TrROS]  folding stability dG unfold       0.963
1  SAGGSAGGSAGGSGSMSVSGGPSVIVVTLPGGEKVVLPLDELDELYKLPYVSATTVSLPSAGGSAGGSAGGS [r4_348_JUSTAS]  folding stability dG unfold        1.13
2  SAGGSAGGSAGGMTPEEIEAALQKAREENSEDEEFTVTVTDPETGEVLTIRIDPNSVTIESAGGSAGGSAGG [r7_45_JUSTAS]  folding stability dG unfold       0.719

// query folding stability dG unfold value for entry SAGGSAGGGDEVKTFKAKVKLVSVDPETGEQLVLAEVPDGKPILVKVPKSFPLKEDEIVEFELSSAGGSAGG [r6_68_TrMRF] 1.3

----------
assay: folding stability dG unfold from trypsin proteolysis; higher = more stable
readout.name: folding stability dG unfold (kcal/mol)
# unit: kcal/mol | format: bare number

In [3]: df
Out[3]:
                            sequence_record                 readout_name  meas_value
0  SAGGSAGPPKPGKIELEFEDPSGGKKYKVDIYIYPNNEVKTKALNPDGTPIPEEEIKKILKKLGLKSAGGSA [r15_872_JUSTAS]  folding stability dG unfold        0.37
1  SAGGSAGGSAGGKMYLIKVKVDGEEKLIKVKSLEEAKKLLEEKGYKIESVEIFEVEEEEESAGGSAGGSAGG [r7_726_TrROS_Hall]  folding stability dG unfold        4.14
2  SAKMYLVIIEIKKDGKTYKLIIIIPEEDENLTEEEILEKIRELAEKLNLEIEKIEVIPLEEAKKLLEELSAG [r14_953_TrROS_Hall]  folding stability dG unfold        3.66
3  SAGMKVTTFTTPTRTVTVTLTPDGTVTVTVTDPSGNPTVTAPDGTPVASTTAPDGTTTFTLDPALFAAASAG [r5_457_JUSTAS]  folding stability dG unfold       0.717
4  SMKIKSIKIEPIRIGDEEYFLIPIEVDGEEIPPEEVKRLVEELFEKLGLPLDPVLLEDPESDIVLVLARGSA [r9_717_TrMRF]  folding stability dG unfold        1.82
5  SAGGSAGGSAGGLVEQAVRAIREAKKAGLKEVVIYLSEEQKEAVKEAAEKEGLKVKIVPESAGGSAGGSAGG [r11_371_TrROS_Hall]  folding stability dG unfold       0.244

--- query ---
// query folding stability dG unfold value for entry SAGGSAGGSAGGWIRNKDGKPVKLEIYPFPVEMWMYRKKPDGGWEPHPMRMPFTFIRITPSAGGSAGGSAGG [r7_90_TrROS] 1.59

Hey, just so you know, these numbers are from the supplement of paper PMC12764529.
